Biological target: IL-17A/A (Homo sapiens, UniProt Q16552)
Construct: purchased Genscript Z03228
Sequence (Q16552 24-155): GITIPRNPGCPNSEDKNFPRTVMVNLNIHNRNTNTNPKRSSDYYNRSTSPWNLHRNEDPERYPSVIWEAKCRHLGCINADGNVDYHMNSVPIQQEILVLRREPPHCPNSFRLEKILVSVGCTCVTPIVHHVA
Assay: IL-17A/A HEK-Blue Cell Assay
Format: cell-based
Conditions: HEK-Blue IL-17A reporter cell line, SEAP readout at A630, 20 hours incubation with IL-17A/A; top concentration 10 uM, 1 uM or 0.3 uM; read-out: IL-17A/A inhibition (pIC50) (converted)
# Lookup of reported IC50 keyed by entry

| molecule | IC50 |
| --- | --- |
| CCC(=O)N[C@H](Cc1ccc(NC(=O)[C@@H](NC(=O)c2ccnn2CC)C2CCCCC2)c(F)c1)C(=O)N1CCCN(C)CC1 [Compound 760] | 0.1 to 10 µM |
| CCC(=O)N[C@@H](C(=O)N1CCN(C)CC1)[C@@H](C)c1ccc(NC(=O)[C@@H](NC(=O)c2ccnn2C(C)C)[C@H]2CC[C@H](C)CC2)c(F)c1 [Compound 253] | < 0.01 µM |

Give the reported IC50 for CCC(=O)N[C@@H](C(=O)N1C[C@@H](C)N(C)[C@H](C)C1)[C@@H](C)c1ccc(NC(=O)[C@@H](NC(=O)c2nonc2CC)[C@H]2CC[C@H](C)CC2)c(F)c1 [Compound 451] (system: IL-17A/A (Homo sapiens, UniProt Q16552)).
< 0.01 µM

Give the reported IC50 for CC(C)n1nccc1C(=O)N[C@@H](C(=O)N1CCN(C)CC1)[C@@H](C)c1ccc(NC(=O)[C@@H](NC(=O)c2ccnn2C(C)C)[C@H]2CC[C@H](C)CC2)c(F)c1 [Compound 330] (system: IL-17A/A (Homo sapiens, UniProt Q16552)).
< 0.01 µM

Give the reported IC50 for CCC(=O)N[C@@H](C(=O)N1CCN(C)CC1)[C@@H](C)c1ccc(NC(=O)C(NC(=O)C(F)(F)C2CCCCC2)[C@H]2CC[C@H](C)CC2)c(F)c1 (stereo partly shown) [Compound 419] (system: IL-17A/A (Homo sapiens, UniProt Q16552)).
0.01 to 0.1 µM

Give the reported IC50 for CCn1nccc1C(=O)N[C@H](C(=O)Nc1ccc([C@H](C)[C@@H](NC(=O)CC(F)(F)F)C(=O)N2CCN(C)CC2)cc1F)C1CCCCC1 [Compound 643] (system: IL-17A/A (Homo sapiens, UniProt Q16552)).
0.1 to 10 µM

Give the reported IC50 for CCC(=O)N[C@@H](C(=O)N1CCN(Cc2ccccn2)CC1)[C@@H](C)c1ccc(NC(=O)[C@@H](NC(=O)C(F)(F)c2cccc(C#N)c2)C2CCCCC2)c(F)c1 [Compound 363] (system: IL-17A/A (Homo sapiens, UniProt Q16552)).
< 0.01 µM

Give the reported IC50 for CCc1nonc1C(=O)N[C@H](C(=O)Nc1ccc([C@H](C)[C@@H](NC(=O)COC)C(=O)N2CCN(C)CC2)cc1F)[C@H]1CC[C@H](C)CC1 [Compound 499] (system: IL-17A/A (Homo sapiens, UniProt Q16552)).
< 0.01 µM

Give the reported IC50 for CCC(=O)N[C@@H](C(=O)N1CCN(C)CC1)[C@@H](C)c1ccc(NC(=O)[C@@H](NC(=O)c2ccnn2CC)C2CCCCCC2)c(F)c1 [Compound 228] (system: IL-17A/A (Homo sapiens, UniProt Q16552)).
< 0.01 µM

Give the reported IC50 for COc1cncc(C(F)(F)C(=O)N[C@H](C(=O)Nc2ccc([C@H](C)[C@@H](NC(=O)c3cnns3)C(=O)N3CCN(C)CC3)cc2F)C2CCCCC2)c1 [Compound 309] (system: IL-17A/A (Homo sapiens, UniProt Q16552)).
0.01 to 0.1 µM

Give the reported IC50 for CCC(=O)N[C@@H](C(=O)N1CCN(C)CC1)[C@@H](C)c1ccc(NC(=O)C(NC(=O)c2ccnn2CC)[C@@H](C)C2CCCCC2)c(F)c1 (stereo partly shown) [Compound 390] (system: IL-17A/A (Homo sapiens, UniProt Q16552)).
< 0.01 µM

Give the reported IC50 for CCC(=O)N[C@@H](C(=O)N1CCN(C)CC1)[C@@H](C)c1ccc(NC(=O)[C@@H](NC(=O)c2ccnn2CC2CC2)C2CCCCCC2)c(F)c1 [Compound 271] (system: IL-17A/A (Homo sapiens, UniProt Q16552)).
< 0.01 µM

Give the reported IC50 for CCC(=O)N[C@@H](C(=O)N1CCC(C)(O)CC1)[C@@H](C)c1ccc(NC(=O)[C@@H](NC(=O)C(F)(F)c2nc(C)cs2)[C@H]2CC[C@H](C)CC2)c(F)c1 [Compound 376] (system: IL-17A/A (Homo sapiens, UniProt Q16552)).
0.01 to 0.1 µM

Give the reported IC50 for CCC(=O)N[C@@H](C(=O)N1CCN(Cc2ccccc2)CC1)[C@@H](C)c1ccc(NC(=O)[C@@H](NC(=O)c2ccnn2CC)C2CCCCC2)c(F)c1 [Compound 366] (system: IL-17A/A (Homo sapiens, UniProt Q16552)).
< 0.01 µM

Give the reported IC50 for CCn1nccc1C(=O)N[C@H](C(=O)Nc1ccc([C@H](C)[C@@H](NC(=O)c2cncs2)C(=O)N2CCN(C)CC2)cc1F)C1CCCCC1 [Compound 303] (system: IL-17A/A (Homo sapiens, UniProt Q16552)).
0.01 to 0.1 µM

Give the reported IC50 for CCc1nonc1C(=O)N[C@H](C(=O)Nc1ccc([C@H](C)[C@@H](NC(=O)c2cnns2)C(=O)N2CCN(C)CC2)cc1F)[C@H]1CC[C@H](C)CC1 [Compound 408] (system: IL-17A/A (Homo sapiens, UniProt Q16552)).
< 0.01 µM

Give the reported IC50 for CCn1nccc1C(=O)N[C@H](C(=O)Nc1ccc([C@H](C)[C@@H](NC(=O)c2cnns2)C(=O)N2CCN(C)C3(CC3)C2)cc1F)[C@H]1CC[C@H](C)CC1 [Compound 439] (system: IL-17A/A (Homo sapiens, UniProt Q16552)).
0.01 to 0.1 µM

Give the reported IC50 for CCn1nccc1C(=O)N[C@H](C(=O)Nc1ccc([C@H](C)[C@@H](NC(=O)c2cnns2)C(=O)N2CCN(C)CC2)cc1F)[C@H]1CC[C@H](C)CC1 [Compound 388] (system: IL-17A/A (Homo sapiens, UniProt Q16552)).
0.01 to 0.1 µM

Give the reported IC50 for CCC(=O)N[C@@H](C(=O)N(C)Cc1cncn1C)[C@@H](C)c1ccc(NC(=O)[C@@H](NC(=O)c2nonc2CC)[C@H]2CC[C@H](C)CC2)c(F)c1 [Compound 455] (system: IL-17A/A (Homo sapiens, UniProt Q16552)).
0.1 to 10 µM

Give the reported IC50 for CCc1nonc1C(=O)N[C@H](C(=O)Nc1ccc([C@H](C)[C@@H](NC(=O)[C@H](C)CC(=O)O)C(=O)N2CCN(C)CC2)cc1F)[C@H]1CC[C@H](C)CC1 [Compound 493] (system: IL-17A/A (Homo sapiens, UniProt Q16552)).
0.01 to 0.1 µM

Give the reported IC50 for CCC(=O)N[C@@H](C(=O)N1CCC(C)CC1)[C@@H](C)c1ccc(NC(=O)[C@@H](NC(=O)c2ccnn2CC)[C@H]2CC[C@H](C)CC2)c(F)c1 [Compound 370] (system: IL-17A/A (Homo sapiens, UniProt Q16552)).
0.01 to 0.1 µM

Give the reported IC50 for CCC(=O)N[C@H](Cc1ccc(NC(=O)[C@@H](NC(=O)C(F)(F)c2ccc(=O)[nH]c2)C2CCCCC2)c(F)c1)C(=O)N1CCN(C)CC1 [Compound 217] (system: IL-17A/A (Homo sapiens, UniProt Q16552)).
0.1 to 10 µM

Every entry's value here was drawn from patent US12421212B2.
